Reference source: paper PMC10397247

Biological target: T1, 4H492-bH
T1 chain: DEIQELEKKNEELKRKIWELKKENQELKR
Assay: two-hybrid library CCNG1;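 further: natural log of median RNA to DNA barcode read ratio; higher means stronger binding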
hey, just use Condition met if measured interaction score is less than -1, otherwise Condition not met

Take a look at these entries with their results.
>>> category_label("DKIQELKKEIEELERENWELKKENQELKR [4H2588-bH]")
"Condition met"
>>> category_label("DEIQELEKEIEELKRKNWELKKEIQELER [4H121-bH]")
"Condition not met"
>>> category_label("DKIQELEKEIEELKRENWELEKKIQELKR [4H2134-bH]")
"Condition not met"
>>> category_label("DKIQELKKENEELEREIWELEKENQELKR [4H2692-bH]")
"Condition not met"
>>> category_label("DEIQELEKKNEELKRENWELKKKIQELER [4H477-bH]")
"Condition met"
>>> category_label("DKIQELKKKIEELERENWELEKKNQELER [4H2839-bH]")
"Condition not met"

Req: Criterion: interaction score strictly below -1. Is it met by DKIQELKKKIEELKRKIWELEKENQELER [4H2915-bH] ?
Resp: Condition met
